# Tested on: human APOE RNA
# Experiment Summary: Dose-dependent inhibition of human APOE RNA in HepG2 cells, electroporation, 24 hours (Example 6)
# Assay type: cell-based
# Test Parameters: 8,000 nM
Strand notation (5' to 3'): a small letter for the sugar, then the base; units joined by * are phosphorothioate-linked, units joined directly phosphodiester-linked; [ ] holds rarer units or linkages, { } end groups; capitals alone tell only the bases. [ms] = mesyl phosphoramidate linkage; e = 2'-O-(2-methoxyethyl) (MOE); k = constrained ethyl (cEt); [5mC] = 5-methylcytosine; d = 2'-deoxy (DNA)
Measured APOE RNA (% UTC) of individual entries
Observable: APOE RNA (% UTC)

1. 1693105: 6-10-4 MOE gapmer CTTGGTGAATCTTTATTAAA, linkages sosssszzzssssszssss (e[5mC]*eTeT*eG*eG*eT*dG[ms]dA[ms]dA[ms]dT*d[5mC]*dT*dT*dT*dA[ms]dT*eT*eA*eA*eA) [compound 1693105]	21 % UTC
2. 1736527: 6-10-4 MOE gapmer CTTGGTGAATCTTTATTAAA, linkages sssooozzsssssssssss (e[5mC]*eT*eT*eGeGeTdG[ms]dA[ms]dA*dT*d[5mC]*dT*dT*dT*dA*dT*eT*eA*eA*eA) [compound 1736527]	34 % UTC
3. 1736492 (e[5mC]*eTeT*eG*eG*eT*dG[ms]dA[ms]dA[ms]dT*d[5mC]*dT*dT*dT*dA[ms]dT*kT*eA*eA*eA; antisense) [Compound 1736492]	15 % UTC
4. 1736529 (e[5mC]*eT*eT*eG*eG*eTdG[ms]dA[ms]dA[ms]dT*d[5mC]*dT*dT*dT*dA[ms]dT*kT*kA*eA*eA; antisense) [Compound 1736529]	13 % UTC
5. 1736524: 6-10-4 MOE gapmer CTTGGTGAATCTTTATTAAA, linkages sssooozzssssssssoss (e[5mC]*eT*eT*eGeGeTdG[ms]dA[ms]dA*dT*d[5mC]*dT*dT*dT*dA*dT*eTeA*eA*eA) [compound 1736524]	28 % UTC
6. 1693101: 6-10-4 MOE gapmer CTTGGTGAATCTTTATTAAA, linkages sssssozzzssssszssss (e[5mC]*eT*eT*eG*eG*eTdG[ms]dA[ms]dA[ms]dT*d[5mC]*dT*dT*dT*dA[ms]dT*eT*eA*eA*eA) [compound 1693101]	49 % UTC
7. 1736516 (e[5mC]*eTeTeG*eG*kT*dG[ms]dA[ms]dA[ms]dT*d[5mC]*dT*dT*dT*dA[ms]dT*eT*eA*eA*eA; antisense) [Compound 1736516]	32 % UTC
8. 1736517 (e[5mC]*eTeTeG*kG*kT*dG[ms]dA[ms]dA[ms]dT*d[5mC]*dT*dT*dT*dA[ms]dT*eT*eA*eA*eA; antisense) [Compound 1736517]	13 % UTC
